The origin of these recorded values is paper PMC10313921.

Test system: PDIPG (low-passage pediatric patient-derived line)
Assay: Drug screening of PDIPG tumor foci on OBSCs
Format: cell-based, human
Details: Homo sapiens
Procedure: Tumor cells (0.17 μL, 25,000 cells) were seeded onto OBSCs 2h after slicing, with one tumor seeded in the center of each hemisphere for a total of two tumor foci per OBSC. BSM was changed 24h after slicing. Fluorescence images were taken 0 h, 24 h, and 96 h post-seeding for normalization of tumor size. Bioluminescence readouts were also taken at 0 h, 24 h, and 96 h post seeding for assessment of cell viability. […]
measure: EC90

Solved entries:
CC(=O)Nc1cccc(-n2c(=O)n(C3CC3)c(=O)c3c(Nc4ccc(I)cc4F)n(C)c(=O)c(C)c32)c1	> 10 µM
COc1cc([C@@H]2c3cc4c(cc3[C@@H](O[C@@H]3O[C@@H]5CO[C@@H](C)O[C@H]5[C@H](O)[C@H]3O)[C@H]3COC(=O)[C@H]23)OCO4)cc(OC)c1O [Etoposide]	> 10 µM
Nc1ccn([C@@H]2O[C@H](CO)[C@@H](O)C2(F)F)c(=O)n1	> 10 µM
CC[C@]1(O)C[C@H]2CN(CCc3c([nH]c4ccccc34)[C@@](C(=O)OC)(c3cc4c(cc3OC)N(C=O)[C@H]3[C@@](O)(C(=O)OC)[C@H](OC(C)=O)[C@]5(CC)C=CCN6CC[C@]43[C@@H]65)C2)C1	> 10 µM
O=NN(CCCl)C(=O)NC1CCCCC1	1880 µM

Alright, here's another compound for you.
Ask: For the compound Nc1ncn([C@@H]2O[C@H](CO)[C@@H](O)[C@H]2O)c(=O)n1 , give its reported EC90.
Reply: > 10 µM

* * *

Tested on: PDIPG (low-passage pediatric patient-derived line)
Assay: Drug screening of PDIPG tumor foci on OBSCs
Type: cell-based, human
Conditions: PDIPG on OBSCs; slope through the EC50
Protocol: Tumor cells (0.17 μL, 25,000 cells) were seeded onto OBSCs 2h after slicing, with one tumor seeded in the center of each hemisphere for a total of two tumor foci per OBSC. BSM was changed 24h after slicing. Fluorescence images were taken 0 h, 24 h, and 96 h post-seeding for normalization of tumor size. Bioluminescence readouts were also taken at 0 h, 24 h, and 96 h post seeding for assessment of cell viability. […]
Listed here: items and their measured Slope.
Response field accepts a number only; no unit should be typed.

Example results:
CC[C@]1(O)C[C@H]2CN(CCc3c([nH]c4ccccc34)[C@@](C(=O)OC)(c3cc4c(cc3OC)N(C=O)[C@H]3[C@@](O)(C(=O)OC)[C@H](OC(C)=O)[C@]5(CC)C=CCN6CC[C@]43[C@@H]65)C2)C1	-2.32E-02
N.N.[Cl][Pt][Cl] [Cisplatin]	-2.73E-02
Nc1ncn([C@@H]2O[C@H](CO)[C@@H](O)[C@H]2O)c(=O)n1	-2.53E-04
Cn1nnc2c(C(N)=O)ncn2c1=O [Temozolomide]	-4.80E-05
O=NN(CCCl)C(=O)NC1CCCCC1	-4.80E-04
COc1cc([C@@H]2c3cc4c(cc3[C@@H](O[C@@H]3O[C@@H]5CO[C@@H](C)O[C@H]5[C@H](O)[C@H]3O)[C@H]3COC(=O)[C@H]23)OCO4)cc(OC)c1O [Etoposide]	-5.87E-04
N.N.O=C([O-])C1(C(=O)[O-])CCC1.[Pt+2]	-3.59E-03
CC(=O)Nc1cccc(-n2c(=O)n(C3CC3)c(=O)c3c(Nc4ccc(I)cc4F)n(C)c(=O)c(C)c32)c1	-1.00E-03

Ask: Return the recorded Slope value; entry: Nc1ccn([C@@H]2O[C@H](CO)[C@@H](O)C2(F)F)c(=O)n1
Reply: -3.03E-04

* * *

system: MS21 (low-passage patient-derived GBM line); test: Drug screening of MS21 tumor foci on OBSCs; assay type: cell-based, human; settings: MS21 on OBSCs; dose required to kill 10% of the tumor
Sorting guide: entries reporting EC10 beneath 60 µM go in the Criterion met pile, the rest go in the Criterion not met pile.

Answered examples (3):
N.N.[Cl][Pt][Cl] [Cisplatin]	Criterion met
CC[C@]1(O)C[C@H]2CN(CCc3c([nH]c4ccccc34)[C@@](C(=O)OC)(c3cc4c(cc3OC)N(C=O)[C@H]3[C@@](O)(C(=O)OC)[C@H](OC(C)=O)[C@]5(CC)C=CCN6CC[C@]43[C@@H]65)C2)C1 [Vincristine]	Criterion met
Nc1ncn([C@@H]2O[C@H](CO)[C@@H](O)[C@H]2O)c(=O)n1 [Azacitidine]	Criterion met

Then this molecule:
Ask: Threshold test, EC10 < 60 µM: O=NN(CCCl)C(=O)NC1CCCCC1 [Lomustine]
Reply: Criterion not met

* * *

test system: GBM8 (high-passage patient-derived GBM line); test: Drug screening of GBM8 tumor foci on OBSCs; type: cell-based, human; conditions: GBM8 on OBSCs; area under the dose-response curve, trapezoidal rule
Recorded AUC determines the label; the label ranges are Low = under 3, Mid = from 3 up to 20, High = 20 and over

Some solved entries appear below for comparison.
O=NN(CCCl)C(=O)NC1CCCCC1 [Lomustine]	Mid
CC[C@]1(O)C[C@H]2CN(CCc3c([nH]c4ccccc34)[C@@](C(=O)OC)(c3cc4c(cc3OC)N(C=O)[C@H]3[C@@](O)(C(=O)OC)[C@H](OC(C)=O)[C@]5(CC)C=CCN6CC[C@]43[C@@H]65)C2)C1 [Vincristine]	Low

Ask: Band assignment needed for Nc1ccn([C@@H]2O[C@H](CO)[C@@H](O)C2(F)F)c(=O)n1 [Gemcitabine] please.
Reply: Low

Ask: Which of the defined bands does the recorded AUC of Cn1nnc2c(C(N)=O)ncn2c1=O [Temozolomide] sit within?
Reply: High

* * *

tested on: MB231Br (breast cancer metastasis to brain); assay: Drug screening of MB231Br tumor foci on OBSCs; assay type: cell-based, human; conditions: MB231BR on OBSCs; area under the dose-response curve, trapezoidal rule
measure: AUC
Lab note: write the figure by itself, no unit.

Known AUC results, listed for orientation:
Nc1ncn([C@@H]2O[C@H](CO)[C@@H](O)[C@H]2O)c(=O)n1	3.36E+02
O=NN(CCCl)C(=O)NC1CCCCC1	1.96E+03
CC(=O)Nc1cccc(-n2c(=O)n(C3CC3)c(=O)c3c(Nc4ccc(I)cc4F)n(C)c(=O)c(C)c32)c1	3.32E+01
Cn1nnc2c(C(N)=O)ncn2c1=O [Temozolomide]	2.58E+03

Now for another entry.
Ask: Provide only the value of recorded AUC for N.N.O=C([O-])C1(C(=O)[O-])CCC1.[Pt+2]
Reply: 1.89E+02

* * *

Catalogue of EC10 readings, one per entry.
test system: GBM8 (high-passage patient-derived GBM line); test: Drug screening of GBM8 tumor foci on OBSCs; format: cell-based, human; settings: GBM8 on OBSCs; dose required to kill 10% of the tumor
Response body: numeric value in nM, unit text excluded.

O=NN(CCCl)C(=O)NC1CCCCC1	685

Ask: Provide EC10, system GBM8 (high-passage patient-derived GBM line), entry CC(=O)Nc1cccc(-n2c(=O)n(C3CC3)c(=O)c3c(Nc4ccc(I)cc4F)n(C)c(=O)c(C)c32)c1
Reply: 31.3

Ask: Give EC10; test system GBM8 (high-passage patient-derived GBM line); compound Nc1ncn([C@@H]2O[C@H](CO)[C@@H](O)[C@H]2O)c(=O)n1
Reply: 8330

Ask: Identify measured EC10 obtained with GBM8 (high-passage patient-derived GBM line) for Nc1ccn([C@@H]2O[C@H](CO)[C@@H](O)C2(F)F)c(=O)n1 .
Reply: 67.6

Ask: Write down the reported EC10 (system: GBM8 (high-passage patient-derived GBM line)) of COc1cc([C@@H]2c3cc4c(cc3[C@@H](O[C@@H]3O[C@@H]5CO[C@@H](C)O[C@H]5[C@H](O)[C@H]3O)[C@H]3COC(=O)[C@H]23)OCO4)cc(OC)c1O [Etoposide]
Reply: 558

* * *

# IC50 per entry
test system: MB231Br (breast cancer metastasis to brain); test: Drug screening of MB231Br tumor foci on OBSCs; assay type: cell-based, human; settings: Homo sapiens; MB231Br on OBSCs; dosed day 1, survival via bioluminescence day 4; linear interpolation
The response must be a number in µM with no trailing unit.

Nc1ncn([C@@H]2O[C@H](CO)[C@@H](O)[C@H]2O)c(=O)n1	208

Ask: Fetch value of IC50 on MB231Br (breast cancer metastasis to brain) for O=NN(CCCl)C(=O)NC1CCCCC1 .
Reply: 1610

* * *

tested on: MS21 (low-passage patient-derived GBM line); experiment: Drug screening of MS21 tumor foci on OBSCs; format: cell-based, human; settings: MS21 on OBSCs; slope through the EC50
Documented Slope across a set of compounds

Previously resolved entries follow.
Nc1ncn([C@@H]2O[C@H](CO)[C@@H](O)[C@H]2O)c(=O)n1	-2.80E-04
CC[C@]1(O)C[C@H]2CN(CCc3c([nH]c4ccccc34)[C@@](C(=O)OC)(c3cc4c(cc3OC)N(C=O)[C@H]3[C@@](O)(C(=O)OC)[C@H](OC(C)=O)[C@]5(CC)C=CCN6CC[C@]43[C@@H]65)C2)C1	-5.56E-03
N.N.[Cl][Pt][Cl] [Cisplatin]	-1.90E-02
Cn1nnc2c(C(N)=O)ncn2c1=O [Temozolomide]	5.47E-04
N.N.O=C([O-])C1(C(=O)[O-])CCC1.[Pt+2]	-1.24E-02

Ask: Please report the measured Slope for O=NN(CCCl)C(=O)NC1CCCCC1
Reply: -9.20E-04
